These entries and their values trace back to ChEMBL document CHEMBL3425404.

The listing below reports IC50 for compounds tested on Heat shock protein HSP 90-beta (Homo sapiens, UniProt P08238).
Sequence (P08238 whole entry): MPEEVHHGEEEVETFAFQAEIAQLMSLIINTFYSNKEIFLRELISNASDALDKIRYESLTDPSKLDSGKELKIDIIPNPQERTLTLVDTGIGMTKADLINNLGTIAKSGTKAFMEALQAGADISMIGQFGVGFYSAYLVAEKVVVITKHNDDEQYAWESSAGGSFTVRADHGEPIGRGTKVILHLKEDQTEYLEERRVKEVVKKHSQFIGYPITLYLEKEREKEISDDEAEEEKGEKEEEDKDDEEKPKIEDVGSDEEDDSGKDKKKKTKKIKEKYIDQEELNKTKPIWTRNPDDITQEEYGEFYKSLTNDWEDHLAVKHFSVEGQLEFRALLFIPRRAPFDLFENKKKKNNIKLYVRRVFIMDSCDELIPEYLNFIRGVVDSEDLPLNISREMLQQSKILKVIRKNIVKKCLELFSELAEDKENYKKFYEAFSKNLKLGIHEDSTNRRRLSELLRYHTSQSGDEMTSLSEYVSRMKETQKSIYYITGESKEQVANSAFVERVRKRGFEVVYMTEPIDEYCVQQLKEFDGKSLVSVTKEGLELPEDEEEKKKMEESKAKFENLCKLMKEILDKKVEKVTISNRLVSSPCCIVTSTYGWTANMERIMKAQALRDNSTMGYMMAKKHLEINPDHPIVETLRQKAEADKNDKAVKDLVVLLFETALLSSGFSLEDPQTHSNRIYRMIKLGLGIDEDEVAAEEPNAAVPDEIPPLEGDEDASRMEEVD

smiles.entry | IC50
C#CCCCn1c(Sc2c(C)cc(C)cc2C)nc2c(N)ncnc21 | > 500 µM
C#CCCCn1c(Sc2cc(Cl)cc(Br)c2)nc2c(N)ncnc21 | > 100 µM
C#CCCCn1c(Sc2ccccc2OC)nc2c(N)ncnc21 | > 100 µM

# input for lookup
State recorded IC50 with Heat shock protein HSP 90-beta (Homo sapiens, UniProt P08238), entry `C#CCCCn1c(Sc2cc(C(F)(F)F)ccc2Cl)nc2c(N)ncnc21` , no comment.
> 100 µM

---

This listing pairs compounds with measured IC50.
Molecular target: Endoplasmin (Canis lupus familiaris, UniProt P41148)
Sequence (P41148 whole entry): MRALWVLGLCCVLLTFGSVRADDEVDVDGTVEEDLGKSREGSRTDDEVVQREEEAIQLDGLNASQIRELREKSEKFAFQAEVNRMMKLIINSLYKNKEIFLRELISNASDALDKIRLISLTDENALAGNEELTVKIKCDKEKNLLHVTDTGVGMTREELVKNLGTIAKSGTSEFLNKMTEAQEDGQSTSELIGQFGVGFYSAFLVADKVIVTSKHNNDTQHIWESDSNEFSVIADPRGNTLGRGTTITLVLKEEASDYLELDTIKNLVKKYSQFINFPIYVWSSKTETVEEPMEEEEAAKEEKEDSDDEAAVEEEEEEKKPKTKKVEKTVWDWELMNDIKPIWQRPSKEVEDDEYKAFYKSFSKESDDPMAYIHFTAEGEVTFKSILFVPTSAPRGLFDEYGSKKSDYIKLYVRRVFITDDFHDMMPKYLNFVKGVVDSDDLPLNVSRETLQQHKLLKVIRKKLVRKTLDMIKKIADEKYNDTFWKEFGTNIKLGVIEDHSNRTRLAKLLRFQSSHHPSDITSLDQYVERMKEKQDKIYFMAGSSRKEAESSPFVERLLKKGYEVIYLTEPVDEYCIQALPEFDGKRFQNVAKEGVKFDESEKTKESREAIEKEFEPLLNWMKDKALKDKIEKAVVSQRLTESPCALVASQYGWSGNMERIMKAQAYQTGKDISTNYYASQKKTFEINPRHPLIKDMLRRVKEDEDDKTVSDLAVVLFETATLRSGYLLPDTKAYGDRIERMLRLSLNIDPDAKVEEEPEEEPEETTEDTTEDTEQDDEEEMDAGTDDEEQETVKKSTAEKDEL
Assay: Displacement of Cy3B-GM from recombinant Grp94 (unknown origin) after 24 hrs by fluorescence polarization assay
Only the number, expressed in nM, is required.

Known IC50 results, listed for orientation:
compound | value.measured
Nc1ncnc2c1nc(Sc1cc(Cl)cc(Cl)c1)n2CCC(F)(F)F | 560
C#CCCCn1c(Sc2ccccc2OC)nc2c(N)ncnc21 | 6200
C#CCCCn1c(Sc2cc(Br)cc(Br)c2)nc2c(N)ncnc21 | 290
Nc1ncnc2c1nc(Sc1cc(Cl)cc(Cl)c1)n2CCCCC(F)(F)F | 2740
C#CCCCn1c(Sc2ccc(Cl)cc2Cl)nc2c(N)ncnc21 | 120
CC(C)NCCCn1c(Sc2cc3c(cc2I)OCO3)nc2c(N)nccc21 | 101
C#CCCCn1c(Sc2cc(C(F)(F)F)ccc2Cl)nc2c(N)ncnc21 | 500
C#CCCCn1c(Sc2ccc(Cl)c(Cl)c2)nc2c(N)ncnc21 | 695

State recorded IC50 with Endoplasmin (Canis lupus familiaris, UniProt P41148), entry C#CCC(C)n1c(Sc2ccc(Cl)cc2Cl)nc2c(N)ncnc21 (stereo not drawn) , no comment.
5000

State recorded IC50 with Endoplasmin (Canis lupus familiaris, UniProt P41148), entry `CC(C)NCCCn1c(Sc2cc3c(cc2N(C)C)OCO3)nc2c(N)ncnc21` , no comment.
265

State recorded IC50 with Endoplasmin (Canis lupus familiaris, UniProt P41148), entry `C#CCCn1c(Sc2cc(Cl)cc(Cl)c2)nc2c(N)ncnc21` , no comment.
287

State recorded IC50 with Endoplasmin (Canis lupus familiaris, UniProt P41148), entry `CC(C)NCCCn1c(Sc2cc(Cl)cc(Cl)c2)nc2c(N)nccc21` , no comment.
1080

State recorded IC50 with Endoplasmin (Canis lupus familiaris, UniProt P41148), entry `C#CCCCn1c(Sc2cc(Cl)cc(Cl)c2)nc2c(N)ncnc21` , no comment.
260

State recorded IC50 with Endoplasmin (Canis lupus familiaris, UniProt P41148), entry `C#CCCCCn1c(Sc2cc(Cl)cc(Cl)c2)nc2c(N)ncnc21` , no comment.
665

---

Test: Oral bioavailability in B6D2F1 mouse at 10 mg/kg by LC-MS/MS analysis
Format: ADME, organism-based
Conditions: in vivo
experimental.readout: bioavailability (%)
Only the number, expressed in %, is required.

State its bioavailability: `CC(C)NCCCn1c(Sc2cc(Cl)cc(Cl)c2)nc2c(N)ncnc21`
80

---

Assay: Ratio of drug level in tumor to plasma in nu/nu athymic mouse xenografted with human MDA-MB-468 cells at 75 mg/kg, ip measured at 24 hrs by LC-MS/MS analysis
Assay type: ADME, organism-based
Design: dose 75 mg/kg, route intraperitoneal
experimental.readout: Kp at 24 h
Output spec: single numeric token, no unit.

State its Kp at 24 h: `CC(C)NCCCn1c(Sc2cc(Cl)cc(Cl)c2)nc2c(N)ncnc21`
200

---

Target: Heat shock protein HSP 90-alpha (Homo sapiens)
Experiment: Displacement of Cy3B-GM from recombinant Hsp90alpha (unknown origin) after 24 hrs by fluorescence polarization assay
pIC50: −log10 of the molar value.
experimental.readout: pIC50

molecule | pIC50
CC(C)NCCCn1c(Sc2ccc(Cl)cc2Cl)nc2c(N)nccc21 | < 4.30
C#CCC(C)n1c(Sc2cc(Cl)cc(Cl)c2)nc2c(N)ncnc21 (stereo not drawn) | < 4.30
C#CCC(CC)n1c(Sc2cc(Cl)cc(Cl)c2)nc2c(N)ncnc21 (stereo not drawn) | < 4.00
C#CCCCn1c(Oc2ccc(Cl)cc2Cl)nc2c(N)ncnc21 | < 4.00

# input for lookup
State its pIC50: `C#CCCCn1c(Sc2cc(Cl)cc(Br)c2)nc2c(N)ncnc21`
< 4.00

---

Biological target: Endoplasmin (Canis lupus familiaris)
Experiment: Displacement of Cy3B-GM from recombinant Grp94 (unknown origin) after 24 hrs by fluorescence polarization assay
experimental.readout: log10 of IC50 (log10 of the value in nM)
Response schema: value (number) is log10 of IC50 in units of nM.

State its log10 of IC50: `C#CCCCn1c(Sc2cc(C)cc(C)c2)nc2c(N)ncnc21`
4.06

State its log10 of IC50: `C#CCCCn1c(Sc2c(C)cc(C)cc2C)nc2c(N)ncnc21`
3.32

State its log10 of IC50: `C#CCCn1c(Sc2ccc(Cl)cc2Cl)nc2c(N)ncnc21`
2.59

State its log10 of IC50: `C#CCCCn1c(Sc2cc(Cl)cc(Br)c2)nc2c(N)ncnc21`
2.38

State its log10 of IC50: `CC(C)NCCCn1c(Sc2ccc(Cl)cc2Cl)nc2c(N)nccc21`
3.54

State its log10 of IC50: `C#CCCCn1c(Sc2ccc(Cl)cc2)nc2c(N)ncnc21`
3.18

State its log10 of IC50: C#CCC(CC)n1c(Sc2ccc(Cl)cc2Cl)nc2c(N)ncnc21 (configuration not stated)
2.96

State its log10 of IC50: `C#CCCCn1c(Sc2ccc(OC)cc2OC)nc2c(N)ncnc21`
4.54

State its log10 of IC50: `C#CCCCn1c(Sc2ccccc2OC(F)(F)F)nc2c(N)ncnc21`
3.15

State its log10 of IC50: `C#CCCCn1c(Sc2ccc(Br)cc2Cl)nc2c(N)ncnc21`
2.59

State its log10 of IC50: `C#CCCCn1c(Sc2ccccc2CO)nc2c(N)ncnc21`
4.47

State its log10 of IC50: C#CCC(C)n1c(Sc2cc(Cl)cc(Cl)c2)nc2c(N)ncnc21 (configuration not stated)
3.76

State its log10 of IC50: `Nc1ncnc2c1nc(Sc1cc(Cl)cc(Cl)c1)n2CCCC(F)(F)F`
2.70

State its log10 of IC50: `C#CCCCn1c(Sc2cc(Cl)c(Cl)cc2Cl)nc2c(N)ncnc21`
2.23

State its log10 of IC50: `C#CCCCn1c(Sc2cc(Cl)nc(Cl)c2)nc2c(N)ncnc21`
3.28

State its log10 of IC50: `C#CCCCn1c(Sc2ccc(Cl)c(Cl)c2Cl)nc2c(N)ncnc21`
2.63

State its log10 of IC50: `C#CCCCn1c(Sc2ccccc2Cl)nc2c(N)ncnc21`
2.54

---

Target: Endoplasmin (Canis lupus familiaris, UniProt P41148)
Assay: Displacement of Cy3B-GM from recombinant Grp94 (unknown origin) after 24 hrs by fluorescence polarization assay
This listing pairs molecules with measured IC50.
Only the number, expressed in nM, is required.

molecule | IC50 (nM)
CCCC(C)n1c(Sc2ccc(Cl)cc2Cl)nc2c(N)ncnc21 (centres undefined) | 2480

State its IC50: `C#CCCCn1c(Cc2ccc(Cl)cc2Cl)nc2c(N)ncnc21`
700

State its IC50: C#CCCCn1c([S+]([O-])c2ccc(Cl)cc2Cl)nc2c(N)ncnc21 (centres undefined)
5400

State its IC50: `Nc1ncnc2c1nc(Sc1cc(Cl)cc(Cl)c1)n2CCCCCC(F)(F)F`
1650

State its IC50: `C#CCCCn1c(S(=O)(=O)c2ccc(Cl)cc2Cl)nc2c(N)ncnc21`
4700

State its IC50: `C#CCCCn1c(Sc2ccc(OC)cc2)nc2c(N)ncnc21`
1130

State its IC50: `C#CCCCn1c(Sc2cc(Cl)ccc2Cl)nc2c(N)ncnc21`
530

---

Target: Heat shock protein HSP 90-alpha (Homo sapiens, UniProt P07900)
Test: Displacement of Cy3B-GM from recombinant Hsp90alpha (unknown origin) after 24 hrs by fluorescence polarization assay
This listing pairs compounds with measured IC50.

Known IC50 results, listed for orientation:
compound | experimental.readout | value.measured
C#CCCCn1c(Cc2ccc(Cl)cc2Cl)nc2c(N)ncnc21 | IC50 | > 100 µM
C#CCCCn1c(Sc2cc(Cl)cc(Cl)c2)nc2c(N)ncnc21 | IC50 | > 500 µM

State its IC50: `C#CCCn1c(Sc2ccc(Cl)cc2Cl)nc2c(N)ncnc21`
> 50 µM

State its IC50: `C#CCCCn1c(Sc2ccc(Cl)c(Cl)c2)nc2c(N)ncnc21`
1.96 µM

State its IC50: `Nc1ncnc2c1nc(Sc1cc(Cl)cc(Cl)c1)n2CCCCCC(F)(F)F`
> 50 µM

State its IC50: C#CCC(CC)n1c(Sc2ccc(Cl)cc2Cl)nc2c(N)ncnc21 (stereo not drawn)
> 50 µM

State its IC50: `Nc1ncnc2c1nc(Sc1cc(Cl)cc(Cl)c1)n2CCc1ccccc1`
> 50 µM

State its IC50: `C#CCCCn1c(Sc2ccc(Cl)c(Cl)c2Cl)nc2c(N)ncnc21`
16 µM

State its IC50: `CCCCn1c(Sc2cc(Cl)cc(Cl)c2)nc2c(N)ncnc21`
> 50 µM

State its IC50: `CC(C)NCCCn1c(Sc2cc3c(cc2I)OCO3)nc2c(N)nccc21`
0.028 µM

State its IC50: `C#CCCCn1c(Sc2cc(Br)cc(Br)c2)nc2c(N)ncnc21`
> 50 µM

State its IC50: `Nc1ncnc2c1nc(Sc1cc(Cl)cc(Cl)c1)n2Cc1ccccc1`
> 50 µM

State its IC50: `C#CCCCn1c(Sc2ccc(Br)cc2Cl)nc2c(N)ncnc21`
> 50 µM
